Where do the numbers come from? From BigSolDB 2.1.

Applied conditions: in water, 316.3 K
Metric name: solubility (mole fraction)

Compound	Val
CCn1cc(C(=O)O)c(=O)c2cc(F)c(N3CCNC(C)C3)c(F)c21.Cl (stereo unspecified)	0.00104

----------
Applied conditions: in ethanol, 298.2 K

Compound	solubility (mole fraction)
CCn1cc(C(=O)O)c(=O)c2cc(F)c(N3CCNC(C)C3)c(F)c21.Cl (stereo unspecified)	3e-05

----------
Applied conditions: in water, 298.2 K
# solubility (mole fraction) values compiled below

Molecule	solubility (mole fraction)
CCn1cc(C(=O)O)c(=O)c2cc(F)c(N3CCNC(C)C3)c(F)c21.Cl (stereo not drawn)	0.0009
CC1CCc2cc(F)cc3c(=O)c(C(=O)O)cn1c23 (stereo not drawn)	2.1e-05
CCn1nc(C(=O)O)c(=O)c2cc3c(cc21)OCO3	4.2e-06
